Experiment: P. aeruginosa biofilm formation inhibitors, primary screen, PAO1 strain, BacTiter-Glo luminescence, LB-PBS (AID 1144)
Details: 12 h, higher = more signal
experimental_readout: z-score
Respond using a number only.

Worked cases, answers included:
[
  {
    "compound": "COCCOC(=O)N1C(=O)[C@@]2(c3cc(C#CC4(O)CCCCCC4)ccc31)[C@H](C(N)=O)[C@H]1C(=O)O[C@H](c3ccccc3)[C@H](c3ccccc3)N1[C@@H]2c1ccccc1OCCO",
    "readout_value": 0.533
  },
  {
    "compound": "CC(=O)n1cc(C(O)C2C=CC3C(=O)N(c4ccccc4)C(=O)C3N2Nc2ccccc2)c2ccccc21 (centres undefined)",
    "readout_value": -0.504
  },
  {
    "compound": "COc1ccc(NN2C(C(O)c3ccco3)C=CC3C(=O)N(C4CCCCC4)C(=O)C32)cc1 (centres undefined)",
    "readout_value": -0.522
  }
]

Then there is this compound:
Could you share which z-score value was measured for [N-]=[N+]=Nc1ccccc1[C@@H]1OC(c2ccc(OCCCO)cc2)=N[C@]1(CCS(=O)(=O)c1ccccc1)C(=O)NCCN1CCOCC1 ?
-0.124
